target: Acyl-CoA:cholesterol acyltransferase (Oryctolagus cuniculus)
Sequence (Q95214 whole entry): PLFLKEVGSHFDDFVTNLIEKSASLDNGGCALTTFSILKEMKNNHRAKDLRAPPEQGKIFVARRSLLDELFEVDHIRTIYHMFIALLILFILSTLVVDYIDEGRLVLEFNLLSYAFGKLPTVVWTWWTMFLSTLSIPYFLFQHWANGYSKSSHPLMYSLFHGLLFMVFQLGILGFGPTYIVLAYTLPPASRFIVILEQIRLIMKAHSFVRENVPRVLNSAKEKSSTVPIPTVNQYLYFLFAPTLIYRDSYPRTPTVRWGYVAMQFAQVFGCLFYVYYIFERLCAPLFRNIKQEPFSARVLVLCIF
measure: IC50 (µM)
API: value field is a number in µM; no unit string.

Which measured IC50 belongs to `CC[C@H](C)C(=O)O[C@H]1C[C@@H](C)C=C2C=C[C@H](C)[C@H](CC[C@@H]3C[C@@H](O)CC(=O)O3)[C@H]21` , tested on Acyl-CoA:cholesterol acyltransferase (Oryctolagus cuniculus)?
16.8

From: ChEMBL document CHEMBL1148854
